molecular target: FXR (Homo sapiens); assay: Gal4-hybrid reporter gene assay FXR; conditions: mean, n ≥ 3
Sequence (Q96RI1 262-486 limits assumed): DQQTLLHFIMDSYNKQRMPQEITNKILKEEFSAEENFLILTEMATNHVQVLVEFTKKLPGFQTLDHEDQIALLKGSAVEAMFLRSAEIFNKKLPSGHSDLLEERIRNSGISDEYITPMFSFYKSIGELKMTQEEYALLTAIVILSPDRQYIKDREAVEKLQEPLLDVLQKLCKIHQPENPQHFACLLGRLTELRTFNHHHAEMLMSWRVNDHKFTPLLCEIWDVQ
Task for the reader: assign each of the following compounds its reported EC50.
Kindly format the answer as number then unit.

input: Respond only with EC50 recorded for "CC(C)(C)c1ccc(CNC(=O)c2ccc(C(=O)O)cc2)cc1"
output: 370 nM

input: Identify measured EC50 corresponding to "CC(C)c1onc(-c2c(Cl)cccc2Cl)c1COc1ccc(CC(=O)O)cc1"
output: 11000 nM

input: Provide only the value of recorded EC50 for "CC(C)c1onc(-c2c(Cl)cccc2Cl)c1COc1ccc(Cc2ccc(OCC(=O)O)cc2)cc1"
output: 1000 nM

input: Let me know recorded EC50 for "O=C(O)c1ccc(CNC(=O)c2ccc(-c3ccccc3)cc2)cc1" , thanks.
output: 440 nM
